The measurements presented in this section are drawn from patent US6696457B1.

- Assay method text: metabolic stability: intrinsic clearance in liver microsomes
- Format: in vitro ADME, human
- Details: 0.5 uM compound, 0.5 mg/ml microsomal protein, 37° C., 30 minutes, NADPH regenerating system
Observed property: in vitro Clearance (human microsomes) CL

Illustrative cases are given below, each with its answer.
Compound	in vitro Clearance (human microsomes) CL
CCN(C(=O)c1[nH]c2c(c1C)C[C@@]1(O)[C@H]3Cc4ccccc4[C@@]1(CCN3)C2)c1ccccc1 [Example 8]	5.9 ml/min/g liver
Cc1c(C(=O)N2CCc3ccccc3C2)[nH]c2c1CC1(O)C3Cc4ccccc4C1(CCN3C)C2 (stereo not shown) [Example 21]	6.0 ml/min/g liver
Cc1c2c(n(C)c1C(=O)N(Cc1ccccc1)C(C)C)CC13CCNC(Cc4ccccc41)C3(O)C2 (stereo not shown) [Example 10]	5.2 ml/min/g liver
Cc1c(C(=O)N2CCc3ccccc3C2)[nH]c2c1CC1(O)C3Cc4ccccc4C1(CCN3)C2 (stereo not shown) [Example 6]	<0.6 ml/min/g liver
CCN(Cc1ccccc1)C(=O)c1c(C)c2c(n1C)CC13CCNC(Cc4ccccc41)C3C2 (stereo not shown) [Example 11]	13.0 ml/min/g liver

# in vitro Clearance (human microsomes) CL (compound: Cc1c(C(=O)N(C(C)C)C(C)C)[nH]c2c1CC1(O)C3Cc4ccccc4C1(CCN3)C2 (stereo not shown) [Example 1] ) is 1.3 ml/min/g liver

# in vitro Clearance (human microsomes) CL (compound: Cc1c(C(=O)CC(C)C)[nH]c2c1C[C@@]1(O)[C@H]3Cc4ccccc4[C@@]1(CCN3)C2 [Example 7] ) is <0.6 ml/min/g liver

# in vitro Clearance (human microsomes) CL (compound: CCN(CC)C(=O)c1[nH]c2c(c1C)C[C@@]1(O)[C@H]3Cc4ccccc4[C@@]1(CCN3)C2 [Example 3] ) is 0.8 ml/min/g liver

# in vitro Clearance (human microsomes) CL (compound: CCN(Cc1ccccc1)C(=O)c1[nH]c2c(c1C)CC1(O)C3Cc4ccccc4C1(CCN3)C2 (stereo not shown) [Example 5] ) is 2.0 ml/min/g liver

# in vitro Clearance (human microsomes) CL (compound: Cc1c(C(=O)N(Cc2ccccc2)C(C)C)[nH]c2c1CC1C3Cc4ccccc4C1(CCN3)C2 (stereo not shown) [Example 4] ) is 3.3 ml/min/g liver

---

- Target desc: human delta opioid receptor (h-DOR/CHO) (Homo sapiens)
- Sequence (P41143 whole entry): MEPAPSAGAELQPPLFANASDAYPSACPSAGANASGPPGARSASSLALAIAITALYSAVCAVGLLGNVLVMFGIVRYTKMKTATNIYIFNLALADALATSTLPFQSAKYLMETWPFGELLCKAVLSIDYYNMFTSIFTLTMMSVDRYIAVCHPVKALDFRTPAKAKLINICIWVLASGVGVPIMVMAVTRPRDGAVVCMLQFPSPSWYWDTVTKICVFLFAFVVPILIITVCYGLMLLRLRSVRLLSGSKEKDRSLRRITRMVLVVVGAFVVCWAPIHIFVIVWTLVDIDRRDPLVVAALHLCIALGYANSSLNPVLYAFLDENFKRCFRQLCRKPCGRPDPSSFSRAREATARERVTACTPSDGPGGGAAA
- Assay method text: cAMP bioassay: inhibition of forskolin-stimulated cAMP in h-DOR/CHO cells
Observed property: pIC50
pIC50 here is simply -log10 of the concentration when that concentration is written in mol/L.

# pIC50 (molecule: `Cc1c(C(=O)N(Cc2ccccc2)C(C)C)[nH]c2c1C[C@@]1(O)[C@H]3Cc4ccccc4[C@@]1(CCN3)C2` ) is 8.94
